molecular target: UniProt:Q9NR96; test: TLR9 inhibition reporter assay (HEK-Blue cells, SEAP reporter, ODN2006 stimulation); settings: HEK-Blue cells overexpressing human TLR9, ODN2006 5 nM
Sequence (Q9NR96 26-1032): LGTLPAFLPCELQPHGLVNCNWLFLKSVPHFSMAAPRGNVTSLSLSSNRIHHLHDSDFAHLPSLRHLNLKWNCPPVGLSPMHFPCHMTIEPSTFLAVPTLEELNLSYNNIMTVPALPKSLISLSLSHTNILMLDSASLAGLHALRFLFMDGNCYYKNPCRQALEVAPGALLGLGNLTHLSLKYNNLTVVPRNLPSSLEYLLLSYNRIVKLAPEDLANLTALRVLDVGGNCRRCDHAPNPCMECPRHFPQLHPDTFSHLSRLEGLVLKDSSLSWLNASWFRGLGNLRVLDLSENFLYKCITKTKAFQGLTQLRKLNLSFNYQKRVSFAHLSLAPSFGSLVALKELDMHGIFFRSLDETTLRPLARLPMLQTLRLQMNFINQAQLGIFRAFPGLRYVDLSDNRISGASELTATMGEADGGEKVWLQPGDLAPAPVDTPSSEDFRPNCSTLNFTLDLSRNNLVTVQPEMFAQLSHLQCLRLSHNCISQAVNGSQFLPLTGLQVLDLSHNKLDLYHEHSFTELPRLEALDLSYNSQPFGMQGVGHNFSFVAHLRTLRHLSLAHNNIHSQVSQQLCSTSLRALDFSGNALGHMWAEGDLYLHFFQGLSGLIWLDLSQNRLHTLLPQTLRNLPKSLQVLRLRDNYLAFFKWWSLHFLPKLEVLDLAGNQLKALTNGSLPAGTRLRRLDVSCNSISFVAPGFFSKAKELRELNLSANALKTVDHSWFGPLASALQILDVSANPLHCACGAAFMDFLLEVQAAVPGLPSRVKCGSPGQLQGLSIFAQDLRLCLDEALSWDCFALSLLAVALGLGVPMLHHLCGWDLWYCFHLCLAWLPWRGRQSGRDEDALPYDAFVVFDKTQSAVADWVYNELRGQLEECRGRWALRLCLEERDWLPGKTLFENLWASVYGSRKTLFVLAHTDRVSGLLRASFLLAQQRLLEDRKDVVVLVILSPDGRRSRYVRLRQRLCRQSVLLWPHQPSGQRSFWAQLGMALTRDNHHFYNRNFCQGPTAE
ENDPOINT: pIC50
Answers are plain numbers, as −log10 of the molar value.

Some compounds with known pIC50 results, for comparison:
compound="COc1ccc(-c2[nH]c3ccc(C4CCN(Cc5cccc(NS(C)(=O)=O)c5)CC4)cc3c2C(C)C)cc1OC [Example 260]" endpoint=pIC50 experimental_value=5.57
compound="CNCC(=O)N1CCC(c2ccc3[nH]c(-c4ccc(OC)c(OC)c4)c(CC(F)(F)F)c3c2)CC1 [Example 414]" endpoint=pIC50 experimental_value=5.93

Read the next record carefully.
Enquiry: // pIC50 lookup, key: COc1ccc(-c2[nH]c3ccc(C4CCN(CC(=O)N5CCC(N(C)C)CC5)CC4)cc3c2CC(F)(F)F)cc1OC [Example 364]
Return: 6.25
